testedOn: T1, human GREM1 (hGREM1-His; SEQ ID NO: 595) (human, UniProt O60565 25-184)
T1 construct: also called biotin-hGREM1-His; recombinant human GREM1 protein
T1 sequence: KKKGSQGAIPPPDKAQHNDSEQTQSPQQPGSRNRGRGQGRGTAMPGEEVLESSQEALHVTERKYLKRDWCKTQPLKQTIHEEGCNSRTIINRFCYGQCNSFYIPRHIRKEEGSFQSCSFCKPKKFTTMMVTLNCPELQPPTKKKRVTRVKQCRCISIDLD
assayOverview: SPR, Biacore T200, 37 C, mAb captured, hGREM1-His injected;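 note: HBS-EP running buffer containing heparin, association and dissociation phases tracked, KD computed as koff over kon and half-life derived from koff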
Listed here are binders together with their documented Kd.
Unit nM implied. Number only.

• H4H6240P (antibody, human IgG4, V domains shown, H4H prefix = human IgG4 Fc) VH: QVQLVESGGGVVQPGRSLRLSCAASGFTFSSYGMHWVRQAPGKGLEWVAVIWYDGSNKYYADSVKGRFIISRDNSKNMMYLQMNSLRAEDTAVYYCAREDNWNYAFDYWGQGTLVTVSS VL: EIVMTQSPATLSVSPGERATLSCRASQSISSNLAWYQQKPGQAPRLLIYDSSTRATGIPARFSGSGSGTQFTLTISSLQSEDFALYYCQQYSNWPPFTFGPGTKVDIK = 9.75

Challenge: Please report the recorded Kd for H4H6251P (antibody, human IgG4, V domains shown, H4H prefix = human IgG4 Fc) VH: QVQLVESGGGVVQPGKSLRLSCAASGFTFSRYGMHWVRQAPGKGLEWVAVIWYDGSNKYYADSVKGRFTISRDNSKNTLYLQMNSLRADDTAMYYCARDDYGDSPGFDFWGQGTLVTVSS VL: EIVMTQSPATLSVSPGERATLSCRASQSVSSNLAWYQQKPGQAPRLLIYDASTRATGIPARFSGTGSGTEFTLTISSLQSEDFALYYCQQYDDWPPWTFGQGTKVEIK .
Response given: 275

Challenge: Please report the recorded Kd for H4H2892N (antibody, human IgG4, V domains shown, H4H prefix = human IgG4 Fc) VH: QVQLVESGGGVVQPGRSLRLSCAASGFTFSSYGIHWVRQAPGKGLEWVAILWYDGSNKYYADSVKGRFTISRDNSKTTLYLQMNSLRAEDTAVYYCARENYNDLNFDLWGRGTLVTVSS VL: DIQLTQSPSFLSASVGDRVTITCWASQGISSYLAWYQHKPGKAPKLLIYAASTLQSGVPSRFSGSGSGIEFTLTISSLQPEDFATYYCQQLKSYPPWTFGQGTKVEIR .
Response given: 2.35
